- protocol summary: Metabolic stability in human hepatic microsome
- Type: in vitro ADME
- condition label: human, microsomes, pH 7.4, CL NADPH(+)
Starred links: 1 amine or outer side, 2 acyl side, 3 side chain; linkers in the order of their positions; H or OH if unused. Positions of bridges follow the written chain, without caps; N, C: chain ends. Non-standard residues stand in square brackets, D forms with d. Residues, ends and D or L forms follow the SMILES beside them. *: point of attachment. NMeF = CN[C@@H](Cc1ccccc1)C(=O)O; NMeβAla = CN(CCC(=O)[*:2])[*:1]; NMeL = CN[C@@H](CC(C)C)C(=O)O; NMeV = CN[C@H](C(=O)O)C(C)C; NMeA = CN[C@@H](C)C(=O)O; Piperidide = C1CCN(*)CC1; Sar = CNCC(=O)O
observed property: microsomal CLint at 1 uM (µL/min/mg)
Could you give me the number in µL/min/mg? Just the number is fine.

Past entries and their recorded results:
- compound: "CC(C)C[C@@H]1NC(=O)[C@H](CC(C)C)N(C)C(=O)[C@H](C)N(C)C(=O)[C@H](C(C)C)NC(=O)[C@H](Cc2ccccc2)NC(=O)CNC(=O)[C@H]([C@@H](C)O)NC(=O)[C@H](CC(C)C)NC(=O)[C@@H]2CCCN2C(=O)[C@H](Cc2ccccc2)NC(=O)[C@H](C)NC(=O)C[C@@H](C(=O)N2CCCCC2)NC1=O [DP-23] (AFPLTGFV[NMeA][NMeL]LD-Piperidide; lactam N-12)"
  unit info: "µL/min/mg"
  microsomal CLint at 1 uM: 105
- compound: "CC(C)C[C@@H]1NC(=O)[C@H](C)N(C)C(=O)[C@H](C(C)C)N(C)C(=O)CN(C)C(=O)[C@H](Cc2ccccc2)NC(=O)[C@H](C(C)C)N(C)C(=O)[C@H](C)N(C)C(=O)[C@H]([C@@H](C)O)NC(=O)[C@H](Cc2ccccc2)N(C)C(=O)[C@H](C)NC(=O)CCN(C)C(=O)C[C@@H](C(=O)N2CCCCC2)NC1=O [DP-408] ([NMeβAla]A[NMeF]T[NMeA][NMeV]F[Sar][NMeV][NMeA]LD-Piperidide; lactam N-12)"
  unit info: "µL/min/mg"
  microsomal CLint at 1 uM: 14

Need microsomal CLint at 1 uM, item CC[C@H](C)[C@@H]1NC(=O)[C@H](CC(C)C)N(C)C(=O)[C@H](C(C)C)N(C)C(=O)[C@H](C)NC(=O)[C@H](C)N(C)C(=O)[C@H](Cc2ccccc2)NC(=O)[C@H]([C@@H](C)O)NC(=O)[C@H](CC(C)C)N(C)C(=O)[C@H](CC(C)C)N(C)C(=O)[C@H](C)N(C)C(=O)C[C@@H](C(=O)N2CCCCC2)NC1=O [DP-112] ([NMeA][NMeL][NMeL]TF[NMeA]A[NMeV][NMeL]ID-Piperidide; lactam N-11) 49

* * *

- protocol summary: PAMPA (parallel artificial membrane permeability assay)
- Type: in vitro ADME
- condition label: PAMPA; membrane permeation rate (Pe); 50 mM MOPSO buffer pH 6.5 with 5.0% glycocholic acid, 37° C., 18 hours; read-out: iPAMPA Pe
Starred links: 1 amine or outer side, 2 acyl side, 3 side chain; linkers in the order of their positions; H or OH if unused. Positions of bridges follow the written chain, without caps; N, C: chain ends. Non-standard residues stand in square brackets, D forms with d. Residues, ends and D or L forms follow the SMILES beside them. *: point of attachment. NMeF = CN[C@@H](Cc1ccccc1)C(=O)O; NMeGABA = CN(CCCC(=O)[*:2])[*:1]; NMeI = CC[C@H](C)[C@H](NC)C(=O)O; NMeβAla = CN(CCC(=O)[*:2])[*:1]; NMeL = CN[C@@H](CC(C)C)C(=O)O; NMeV = CN[C@H](C(=O)O)C(C)C; NMeA = CN[C@@H](C)C(=O)O; Piperidide = C1CCN(*)CC1; dNMeA = CN[C@H](C)C(=O)O; Sar = CNCC(=O)O; tBu = CC(C)(C)*
observed property: Papp at 18 hours, 50 µM (×10⁻⁶ cm/s)
Could you give me the number in ×10⁻⁶ cm/s? Just the number is fine.

Past entries and their recorded results:
- molecule: "CC(C)C[C@@H]1NC(=O)[C@H](Cc2ccccc2)N(C)C(=O)[C@H](C)N(C)C(=O)C[C@@H](C(=O)N2CCCCC2)NC(=O)[C@H](Cc2ccccc2)N(C)C(=O)[C@H](C)N(C)C(=O)[C@H]([C@@H](C)O)NC(=O)CN(C)C(=O)[C@H](C)N(C)C(=O)[C@H](C)NC(=O)[C@H](C(C)C)N(C)C(=O)[C@H](CC(C)C)N(C)C1=O [DP-469] ([NMeA][NMeF]L[NMeL][NMeV]A[NMeA][Sar]T[NMeA][NMeF]D-Piperidide; lactam N-12)"
  unit info: "×10⁻⁶ cm/s"
  Papp at 18 hours, 50 µM: 14
- molecule: "CC(C)C[C@H]1C(=O)N[C@@H]([C@@H](C)O)C(=O)N(C)[C@@H](Cc2ccccc2)C(=O)N(C)[C@@H](CC(C)C)C(=O)NCC(=O)N(C)[C@@H](C(C)C)C(=O)N[C@@H](Cc2ccccc2)C(=O)N[C@H](C(=O)N(C)[C@@H](Cc2ccccc2)C(=O)N[C@@H](C)C(=O)N2CCCCC2)CC(=O)N(C)CCC(=O)N[C@@H](C(C)C)C(=O)N1C [DP-193] ([NMeβAla]V[NMeL]T[NMeF][NMeL]G[NMeV]FD[NMeF]A-Piperidide; lactam N-10)"
  unit info: "×10⁻⁶ cm/s"
  Papp at 18 hours, 50 µM: 53
- molecule: "CC[C@H](C)[C@@H]1NC(=O)[C@H](CC(C)C)N(C)C(=O)[C@H](CC(C)C)N(C)C(=O)CN(C)C(=O)[C@H]([C@@H](C)O)NC(=O)[C@H](CC(C)C)N(C)C(=O)[C@H](CC(C)C)NC(=O)CCN(C)C(=O)C[C@@H](C(=O)N2CCCCC2)NC(=O)[C@H](C)NC(=O)[C@H](Cc2ccccc2)N(C)C(=O)[C@H](Cc2ccccc2)NC(=O)[C@H](CC(C)C)N(C)C1=O [DP-957] ([NMeβAla]L[NMeL]T[Sar][NMeL][NMeL]I[NMeL]F[NMeF]AD-Piperidide; lactam N-13)"
  unit info: "×10⁻⁶ cm/s"
  Papp at 18 hours, 50 µM: 4
- molecule: "CC(C)C[C@H]1C(=O)N[C@@H](Cc2ccccc2)C(=O)N[C@@H]([C@@H](C)O)C(=O)N(C)[C@@H](C)C(=O)N[C@H](C(=O)N2CCCCC2)CC(=O)N(C)CC(=O)N[C@@H](C)C(=O)N(C)[C@@H](Cc2ccccc2)C(=O)N(C)[C@@H](CC(C)C)C(=O)N1C [DP-161] ([Sar]A[NMeF][NMeL][NMeL]FT[NMeA]D-Piperidide; lactam N-9)"
  unit info: "×10⁻⁶ cm/s"
  Papp at 18 hours, 50 µM: 26

Need Papp at 18 hours, 50 µM, item CC(C)C[C@H]1C(=O)N[C@H](C(=O)N(C)[C@@H](Cc2ccccc2)C(=O)N(C)[C@@H](Cc2ccccc2)C(=O)N[C@@H](C)C(=O)N2CCCCC2)CC(=O)N[C@H](C(C)C)C(=O)N(C)[C@@H](Cc2ccccc2)C(=O)N(C)[C@@H](CC(C)C)C(=O)N[C@@H]([C@@H](C)O)C(=O)N(C)[C@@H](C)C(=O)N(C)[C@@H](CC(C)C)C(=O)N[C@@H](C(C)C)C(=O)N1C [DP-210] ([dV][NMeF][NMeL]T[NMeA][NMeL]V[NMeL]D[NMeF][NMeF]A-Piperidide; lactam N-9) 1.8

Entry to check: CC[C@H](C)[C@H]1C(=O)N[C@H](C(=O)N2CCCCC2)CC(=O)N(C)CCCC(=O)N(C)[C@@H](Cc2ccccc2)C(=O)N[C@@H]([C@@H](C)O)C(=O)N(C)CC(=O)N[C@@H](COC(C)(C)C)C(=O)N(C)[C@@H](CC(C)C)C(=O)N(C)[C@@H](CC(C)C)C(=O)N1C [DP-272] ([NMeGABA][NMeF]T[Sar]S(tBu)[NMeL][NMeL][NMeI]D-Piperidide; lactam N-9) 49

Entry to check: CC(C)C[C@H]1C(=O)N[C@H](C(=O)N(C)[C@@H](Cc2ccccc2)C(=O)N(C)[C@@H](Cc2ccccc2)C(=O)N[C@@H](C)C(=O)N2CCCCC2)CC(=O)N[C@@H](C)C(=O)N(C)[C@@H](Cc2ccccc2)C(=O)N(C)[C@@H](C)C(=O)N(C)[C@@H](CC(C)C)C(=O)N[C@@H]([C@@H](C)O)C(=O)N(C)[C@@H](C)C(=O)N(C)[C@@H](CC(C)C)C(=O)N[C@@H](C(C)C)C(=O)N1C [DP-203] (A[NMeF][NMeA][NMeL]T[NMeA][NMeL]V[NMeL]D[NMeF][NMeF]A-Piperidide; lactam N-10) 11

Entry to check: CC[C@H](C)[C@H]1C(=O)N[C@@H](COC(C)(C)C)C(=O)N[C@H](C(=O)N2CCCCC2)CC(=O)N(C)[C@@H](C)C(=O)N(C)[C@@H](Cc2ccccc2)C(=O)N(C)CC(=O)N(C)[C@@H](CC(C)C)C(=O)N[C@@H]([C@@H](C)O)C(=O)N(C)[C@@H](C)C(=O)N(C)[C@@H](CC(C)C)C(=O)N1C [DP-138] ([NMeA][NMeF][Sar][NMeL]T[NMeA][NMeL][NMeI]S(tBu)D-Piperidide; lactam N-10) 31

Entry to check: CC(C)C[C@@H]1NC(=O)[C@H](CC(C)C)N(C)C(=O)[C@H](C)NC(=O)[C@H](C(C)C)N(C)C(=O)[C@H](C)N(C)C(=O)CN(C)C(=O)[C@H]([C@@H](C)O)NC(=O)[C@H](Cc2ccccc2)NC(=O)[C@H](CC(C)C)N(C)C(=O)[C@@H](C)N(C)C(=O)C[C@@H](C(=O)N2CCCCC2)NC1=O [DP-243] ([dNMeA][NMeL]FT[Sar][NMeA][NMeV]A[NMeL]LD-Piperidide; lactam N-11) 8.4
